Attribute: RLU
test_system: human TAS2R1 (Homo sapiens, UniProt Q9NYW7)
Construct: expressed in transfected cells; host or cells: HEK293T-Gα16gust44
method: Calcium imaging assay (FLIPR), HEK293T-Gα16gust44 cells transfected with human TAS2R1
Type: cell-based
condition_summary: Time 100.781 s
experimental_endpoint: RLU (RLU)

{"molecule": "C[C@H](CCC(=O)O)[C@H]1CC[C@H]2[C@@H]3CC[C@@H]4C[C@H](O)CC[C@]4(C)[C@H]3C[C@H](O)[C@]12C [Deoxycholic Acid, deoxycholic acid]", "experimental_endpoint": "RLU", "readout_unit": "RLU", "assay_result": 412.535}
{"molecule": "C[C@H](CCC(=O)NCCS(=O)(=O)O)[C@H]1CC[C@H]2[C@@H]3[C@H](O)C[C@@H]4C[C@H](O)CC[C@]4(C)[C@H]3C[C@H](O)[C@]12C [Taurocholic Acid, taurocholic acid]", "experimental_endpoint": "RLU", "readout_unit": "RLU", "assay_result": 386.609}
{"molecule": "C[C@H](CCC(=O)NCCS(=O)(=O)O)[C@H]1CC[C@H]2[C@@H]3CC[C@@H]4C[C@H](O)CC[C@]4(C)[C@H]3CC[C@]12C [Taurolithocholic Acid, taurolithocholic acid]", "experimental_endpoint": "RLU", "readout_unit": "RLU", "assay_result": 661.017}
{"molecule": "C[C@H](CCC(=O)NCC(=O)O)[C@H]1CC[C@H]2[C@@H]3[C@H](O)C[C@@H]4C[C@H](O)CC[C@]4(C)[C@H]3C[C@H](O)[C@]12C [Glycocholic Acid, glycocholic acid]", "experimental_endpoint": "RLU", "readout_unit": "RLU", "assay_result": 550.017}

---

Attribute: RLU
test_system: mouse Tas2r144 (Mus musculus, UniProt Q7TQB8)
Construct: expressed in transfected cells; host or cells: HEK293T-Gα16gust44
Sequence (Q7TQB8 whole entry): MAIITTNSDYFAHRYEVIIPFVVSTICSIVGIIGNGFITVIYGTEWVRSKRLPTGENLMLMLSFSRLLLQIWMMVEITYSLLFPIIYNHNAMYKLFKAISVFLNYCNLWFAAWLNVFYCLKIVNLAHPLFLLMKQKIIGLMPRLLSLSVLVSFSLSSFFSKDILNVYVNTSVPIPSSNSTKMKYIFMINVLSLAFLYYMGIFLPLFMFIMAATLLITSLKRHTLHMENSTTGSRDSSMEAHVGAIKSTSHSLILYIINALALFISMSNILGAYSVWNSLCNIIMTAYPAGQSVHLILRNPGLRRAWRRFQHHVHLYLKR
method: Calcium imaging assay (FLIPR), HEK293T-Gα16gust44 cells transfected with mouse Tas2r144
Assay type: cell-based
condition_summary: Time 24.781 s
experimental_endpoint: RLU (RLU)

{"chemical_smiles": "C[C@H](CCC(=O)O)[C@H]1CC[C@H]2[C@@H]3[C@H](O)C[C@@H]4C[C@H](O)CC[C@]4(C)[C@H]3C[C@H](O)[C@]12C", "assay_result": 205.772}
{"chemical_smiles": "C[C@H](CCC(=O)NCCS(=O)(=O)O)[C@H]1CC[C@H]2[C@@H]3[C@H](O)C[C@@H]4C[C@H](O)CC[C@]4(C)[C@H]3C[C@H](O)[C@]12C", "assay_result": 42.5149}
{"chemical_smiles": "C[C@H](CCC(=O)NCCS(=O)(=O)O)[C@H]1CC[C@H]2[C@@H]3CC[C@@H]4C[C@H](O)CC[C@]4(C)[C@H]3CC[C@]12C", "assay_result": -20.7725}
{"chemical_smiles": "C[C@H](CCC(=O)NCC(=O)O)[C@H]1CC[C@H]2[C@@H]3[C@H](O)C[C@@H]4C[C@H](O)CC[C@]4(C)[C@H]3C[C@H](O)[C@]12C", "assay_result": -17.5148}

---

test_system: human TAS2R1 (Homo sapiens, UniProt Q9NYW7)
Construct: expressed in transfected cells; host or cells: HEK293T-Gα16gust44
Sequence (Q9NYW7 1-299): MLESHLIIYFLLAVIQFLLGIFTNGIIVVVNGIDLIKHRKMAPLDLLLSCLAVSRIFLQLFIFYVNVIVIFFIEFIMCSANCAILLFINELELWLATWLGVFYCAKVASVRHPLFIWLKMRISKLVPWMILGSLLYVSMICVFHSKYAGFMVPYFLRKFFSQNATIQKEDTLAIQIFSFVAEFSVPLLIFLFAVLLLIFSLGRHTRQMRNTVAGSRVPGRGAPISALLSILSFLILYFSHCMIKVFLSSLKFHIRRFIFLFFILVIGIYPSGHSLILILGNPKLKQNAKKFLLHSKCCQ
method: Calcium imaging assay (FLIPR), HEK293T-Gα16gust44 cells transfected with human TAS2R1
Assay type: cell-based
condition_summary: Time 64.781 s
Attribute: RLU
experimental_endpoint: RLU (RLU)

{"chemical_smiles": "C[C@H](CCC(=O)NCC(=O)O)[C@H]1CC[C@H]2[C@@H]3[C@H](O)C[C@@H]4C[C@H](O)CC[C@]4(C)[C@H]3C[C@H](O)[C@]12C", "assay_result": 627.557}
{"chemical_smiles": "C[C@H](CCC(=O)NCCS(=O)(=O)O)[C@H]1CC[C@H]2[C@@H]3CC[C@@H]4C[C@H](O)CC[C@]4(C)[C@H]3CC[C@]12C", "assay_result": 726.535}
{"chemical_smiles": "C[C@H](CCC(=O)O)[C@H]1CC[C@H]2[C@@H]3CC[C@@H]4C[C@H](O)CC[C@]4(C)[C@H]3C[C@H](O)[C@]12C", "assay_result": 415.898}
{"chemical_smiles": "C[C@H](CCC(=O)NCCS(=O)(=O)O)[C@H]1CC[C@H]2[C@@H]3[C@H](O)C[C@@H]4C[C@H](O)CC[C@]4(C)[C@H]3C[C@H](O)[C@]12C", "assay_result": 407.599}

---

test_system: human TAS2R1 (Homo sapiens, UniProt Q9NYW7)
Construct: expressed in transfected cells; host or cells: HEK293T-Gα16gust44
method: Calcium imaging assay (FLIPR), HEK293T-Gα16gust44 cells transfected with human TAS2R1
Assay type: cell-based
condition_summary: Time 84.796 s
Protocol: This set of bile acids was chosen because of their commercial availability in high purities, their diversity within the class of bile acids and their previous detection and quantitation in human blood. Stock solutions were prepared in DMSO. […] Measured data were negative control corrected by subtracting the signal of the mock-transfected cells and exported to Microsoft Excel using the FLIPR software ScreenWorks 4.2. […]
Attribute: RLU

{"chemical_smiles": "C[C@H](CCC(=O)O)[C@H]1CC[C@H]2[C@@H]3CC[C@@H]4C[C@H](O)CC[C@]4(C)[C@H]3CC[C@]12C", "RLU (RLU)": 886.895}
{"chemical_smiles": "C[C@H](CCC(=O)O)[C@H]1CC[C@H]2[C@@H]3[C@H](O)C[C@@H]4C[C@H](O)CC[C@]4(C)[C@H]3CC[C@]12C", "RLU (RLU)": 783.457}
{"chemical_smiles": "C[C@H](CCC(=O)O)[C@H]1CC[C@H]2[C@@H]3[C@@H](O)C[C@@H]4C[C@H](O)CC[C@]4(C)[C@H]3CC[C@]12C", "RLU (RLU)": 565.693}
{"chemical_smiles": "C[C@H](CCC(=O)O)[C@H]1CC[C@H]2[C@@H]3[C@H](O)C[C@@H]4C[C@H](O)CC[C@]4(C)[C@H]3C[C@H](O)[C@]12C", "RLU (RLU)": 702.818}

---

test_system: human TAS2R4 (Homo sapiens)
Construct: expressed in transfected cells; host or cells: HEK293T-Gα16gust44
Sequence (Q9NYW5 whole entry): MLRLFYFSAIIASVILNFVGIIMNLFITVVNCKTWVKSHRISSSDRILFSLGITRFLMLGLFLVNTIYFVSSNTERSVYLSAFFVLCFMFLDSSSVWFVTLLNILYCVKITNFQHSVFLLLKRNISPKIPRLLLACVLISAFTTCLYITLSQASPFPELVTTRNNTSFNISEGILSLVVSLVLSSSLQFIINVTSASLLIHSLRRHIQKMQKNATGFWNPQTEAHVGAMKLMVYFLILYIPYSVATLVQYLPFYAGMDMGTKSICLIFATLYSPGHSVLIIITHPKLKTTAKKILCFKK
method: Calcium imaging assay (FLIPR), HEK293T-Gα16gust44 cells transfected with human TAS2R4; note: test concentration or dose not given here
Type: cell-based
condition_summary: Time (s) 112.781 (TCA, TLCA: 112.782)

{"molecule": "C[C@H](CCC(=O)NCCS(=O)(=O)O)[C@H]1CC[C@H]2[C@@H]3CC[C@@H]4C[C@H](O)CC[C@]4(C)[C@H]3CC[C@]12C [Taurolithocholic Acid, taurolithocholic acid]", "readout_unit": "RLU", "RLU, fluorescence trace": 272.21}
{"molecule": "C[C@H](CCC(=O)O)[C@H]1CC[C@H]2[C@@H]3CC[C@@H]4C[C@H](O)CC[C@]4(C)[C@H]3C[C@H](O)[C@]12C [Deoxycholic Acid, deoxycholic acid]", "readout_unit": "RLU", "RLU, fluorescence trace": 335.627}
{"molecule": "C[C@H](CCC(=O)O)[C@H]1CC[C@H]2[C@@H]3[C@H](O)C[C@@H]4C[C@H](O)CC[C@]4(C)[C@H]3C[C@H](O)[C@]12C [Cholic Acid, cholic acid]", "readout_unit": "RLU", "RLU, fluorescence trace": 529.912}

---

test_system: mouse Tas2r108 (Mus musculus, UniProt Q9JKT3)
Construct: expressed in transfected cells; host or cells: HEK293T-Gα16gust44
Sequence (Q9JKT3 whole entry): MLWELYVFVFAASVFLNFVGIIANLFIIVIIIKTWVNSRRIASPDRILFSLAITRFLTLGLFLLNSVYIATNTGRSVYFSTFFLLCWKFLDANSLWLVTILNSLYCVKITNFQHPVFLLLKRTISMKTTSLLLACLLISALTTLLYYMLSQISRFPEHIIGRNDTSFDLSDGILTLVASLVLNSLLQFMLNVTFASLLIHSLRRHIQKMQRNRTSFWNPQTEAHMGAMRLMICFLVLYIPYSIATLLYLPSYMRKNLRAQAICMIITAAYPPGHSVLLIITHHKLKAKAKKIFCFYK
method: Calcium imaging assay (FLIPR), HEK293T-Gα16gust44 cells transfected with mouse Tas2r108
Format: cell-based
condition_summary: Time 305.562 s
experimental_endpoint: RLU (RLU)

{"chemical_smiles": "C[C@H](CCC(=O)NCC(=O)O)[C@H]1CC[C@H]2[C@@H]3[C@H](O)C[C@@H]4C[C@H](O)CC[C@]4(C)[C@H]3C[C@H](O)[C@]12C", "test_system": "mouse Tas2r108 (Mus musculus, UniProt Q9JKT3)", "readout_unit": "RLU", "assay_result": 159.539}
{"chemical_smiles": "C[C@H](CCC(=O)NCCS(=O)(=O)O)[C@H]1CC[C@H]2[C@@H]3[C@H](O)C[C@@H]4C[C@H](O)CC[C@]4(C)[C@H]3C[C@H](O)[C@]12C", "test_system": "mouse Tas2r108 (Mus musculus, UniProt Q9JKT3)", "readout_unit": "RLU", "assay_result": 241.837}
{"chemical_smiles": "C[C@H](CCC(=O)O)[C@H]1CC[C@H]2[C@@H]3CC[C@@H]4C[C@H](O)CC[C@]4(C)[C@H]3C[C@H](O)[C@]12C", "test_system": "mouse Tas2r108 (Mus musculus, UniProt Q9JKT3)", "readout_unit": "RLU", "assay_result": 416.756}
{"chemical_smiles": "C[C@H](CCC(=O)O)[C@H]1CC[C@H]2[C@@H]3[C@H](O)C[C@@H]4C[C@H](O)CC[C@]4(C)[C@H]3C[C@H](O)[C@]12C", "test_system": "mouse Tas2r108 (Mus musculus, UniProt Q9JKT3)", "readout_unit": "RLU", "assay_result": 175.817}
